- Tested on: Caco-2
- assay-notes: Cytotoxicity against human Caco-2 cells after 24 hrs by MTS assay
- settings: Caco-2, 24 h
pIC50: −log10 of the molar value.
Known pIC50 of a selection of compounds

{"compound": "S=C=NCc1ccccc1 [BENZYL ISOTHIOCYANATE]", "target": "Caco-2", "pIC50": 4.82}
{"compound": "S=C=NCCc1ccccc1 [PHENETHYLISOTHIOCYANATE]", "target": "Caco-2", "pIC50": 4.85}
{"compound": "[Se]=C=NCCCCc1ccccc1 [PHENYLBUTYL ISOSELENOCYANATE]", "target": "Caco-2", "pIC50": 4.92}
{"compound": "[Se]=C=NCCCCCCc1ccccc1 [PHENYLHEXYL ISOSELENOCYANATE]", "target": "Caco-2", "pIC50": 5.00}
{"compound": "S=C=NCCCCc1ccccc1 [PHENYLBUTYL ISOTHIOCYANATE]", "target": "Caco-2", "pIC50": 4.57}

###

- System: Mus musculus
- assay-notes: Toxicity in human UACC-903 cells xenografted in Harlan Sprague-Dawley athymic nude mouse assessed as effect on body weight at 0.76 uM, ip administered three times per week
- Assay type: organism-based
- settings: in vivo
value-kind: Activity

{"compound": "[Se]=C=NCCCCCCc1ccccc1 [PHENYLHEXYL ISOSELENOCYANATE]", "recorded-measurement": "Non-toxic"}
{"compound": "[Se]=C=NCc1ccccc1 [BENZYLISOSELENOCYANATE]", "recorded-measurement": "Non-toxic"}
{"compound": "[Se]=C=NCCc1ccccc1 [PHENETHYLISOSELENOCYANATE]", "recorded-measurement": "Non-toxic"}
{"compound": "[Se]=C=NCCCCc1ccccc1 [PHENYLBUTYL ISOSELENOCYANATE]", "recorded-measurement": "Non-toxic"}

###

- System: Caco-2
- assay-notes: Cytotoxicity against human Caco-2 cells after 24 hrs by MTS assay
- settings: Caco-2, 24 h
pIC50: −log10 of the molar value.
Examples of compounds with documented pIC50 follow.

{"compound": "S=C=NCCCCCCc1ccccc1 [PHENYLHEXYL ISOTHIOCYANATE]", "pIC50": 4.31}
{"compound": "[Se]=C=NCc1ccccc1 [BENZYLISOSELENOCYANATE]", "pIC50": 4.89}
{"compound": "[Se]=C=NCCc1ccccc1 [PHENETHYLISOSELENOCYANATE]", "pIC50": 4.96}
